Tested on: Vero E6 infected with SARS-CoV-2
method_notes: inhibition of SARS-CoV-2 cytopathic effect; higher = more antiviral protection, active = above 15
run_conditions: 8.33 nM; 48 h
Overview of recorded inhibition of SARS-CoV-2 cytopathic effect for various compounds
value_kind: inhibition of SARS-CoV-2 cytopathic effect (%)

compound: c1cc(-c2cnn3cc(-c4ccc(OCCN5CCCCC5)cc4)cnc23)ccn1
reported_measurement: -0.08

compound: CCc1cccc(CC)c1NC(=O)N1Cc2[nH]nc(NC(=O)c3ccc(N4CCN(C)CC4)cc3)c2C1
reported_measurement: 1.98

compound: COc1ccc(S(=O)(=O)N(C(C)=O)c2ccccc2/C=C/c2cc[n+]([O-])cc2)cc1
reported_measurement: 0.26

compound: CC(C)NC[C@@H](C(=O)N1CCN(c2ncnc3c2[C@H](C)C[C@H]3O)CC1)c1ccc(Cl)cc1
reported_measurement: -0.39

compound: CC(C)n1nnc2cc(C(=O)O)ccc21
reported_measurement: 0.35

compound: O=[N+]([O-])O[C@H]1CO[C@H]2[C@@H]1OC[C@H]2O[N+](=O)[O-] [isosorbide-dinitrate]
reported_measurement: 2.2

compound: O=C(OCCOCCO)c1ccccc1Nc1cccc(C(F)(F)F)c1 [etofenamate]
reported_measurement: -1.53

compound: CNC(=O)CN(CCN(CCN(CC(=O)[O-])CC(=O)NC)CC(=O)[O-])CC(=O)[O-].[Gd+3] [gadodiamide]
reported_measurement: -0.45

compound: CC(O)(CS(=O)(=O)c1ccc(F)cc1)C(=O)Nc1ccc(C#N)c(C(F)(F)F)c1 (centres undefined) [bicalutamide]
reported_measurement: -1.35

----------
Overview of recorded inhibition of SARS-CoV-2 cytopathic effect for various molecules
System: Vero E6 infected with SARS-CoV-2
method_notes: inhibition of SARS-CoV-2 cytopathic effect; higher = more antiviral protection, active = above 15
run_conditions: 8.33 nM; 48 h
value_kind: inhibition of SARS-CoV-2 cytopathic effect (%)

molecule: O=C(Nc1cccc(Cl)c1)Nc1ncc(CCNc2ncnc3ccsc23)s1
unit_tag: %
reported_measurement: 0.43
--
molecule: C[C@H]1CNCCCN1S(=O)(=O)c1cccc2cncc(F)c12 [ripasudil]
unit_tag: %
reported_measurement: 0.41
--
molecule: Cc1ccc2cc(-c3c(C)ccc(C(=O)c4c(-c5ccccc5)n(C)n(-c5ccccc5)c4=O)c3N)ccc2n1
unit_tag: %
reported_measurement: -0.19
--
molecule: CN1[C@@H]2CC[C@H]1C[C@@H](OC(=O)C(CO)c1ccccc1)C2 (stereo not given in full)
unit_tag: %
reported_measurement: -2.93
--
molecule: CC[N+](CC)(CCNC(=O)C(=O)NCC[N+](CC)(CC)Cc1ccccc1Cl)Cc1ccccc1Cl [ambenonium]
unit_tag: %
reported_measurement: -2.16

----------
Tested on: Vero E6 infected with SARS-CoV-2
method_notes: inhibition of SARS-CoV-2 cytopathic effect; higher = more antiviral protection, active = above 15
run_conditions: 8.33 nM; 48 h
value_kind: inhibition of SARS-CoV-2 cytopathic effect (%)

molecule: CCC(=O)N[C@@H]1Cc2ccccc2[C@H](c2ccccc2)C1
reported_measurement: 2.8
//
molecule: CC(C)(C)NS(=O)(=O)c1cncc(-c2cc(F)c3nc(N)nn3c2)c1
reported_measurement: 2.61
//
molecule: C[C@H]1CCc2c(cc(Br)c(F)c2Br)N1C=O
reported_measurement: -1.13
//
molecule: Cc1onc(-c2ccccc2)c1C(=O)N[C@@H]1C(=O)N2[C@@H]1SC(C)(C)[C@@H]2C(=O)O
reported_measurement: 1.54
//
molecule: CCCCCN(C)CCC(O)(P(=O)(O)O)P(=O)(O)O [ibandronate]
reported_measurement: 1.34
//
molecule: OCCNC1CCCc2c1[nH]c1ccc(-c3ccccc3)cc21 (configuration not stated)
reported_measurement: 3
//
molecule: C=Cc1c(C)c2cc3nc(c(CC(=O)O)c4[n-]c(cc5nc(cc1[n-]2)C(C)=C5CC)c(C)c4C(=O)O)[C@@H](CCC(=O)O)[C@@H]3C.[Cu+2]
reported_measurement: 2.9
//
molecule: COc1ccc2c(c1)C=C1Cn3c-2c(C2CCCCC2)c2ccc(cc23)C(=O)NS(=O)(=O)N(C)CCOCCN(C)C1=O
reported_measurement: 0.37
//
molecule: CC(C)(OCc1nn(Cc2ccccc2)c2ccccc12)C(=O)O
reported_measurement: -0.77
//
molecule: CC[C@H]1OC(=O)C[C@@H](O)[C@H](C)[C@@H](O[C@@H]2O[C@H](C)[C@@H](O[C@H]3C[C@@](C)(O)[C@@H](O)[C@H](C)O3)[C@H](N(C)C)[C@H]2O)[C@@H](CC=O)C[C@@H](C)C(=O)/C=C/C(C)=C/[C@@H]1CO[C@@H]1O[C@H](C)[C@@H](O)[C@@H](OC)[C@H]1OC
reported_measurement: -1.15
//
molecule: O=C1C=CC(=O)C2=C1C1c3ccccc3C2c2ccccc21
reported_measurement: 0.78
//
molecule: COc1ccc2[nH]c([S+]([O-])Cc3ncc(C)c(OC)c3C)nc2n1 (configuration not stated)
reported_measurement: -12.8
//
molecule: CC(C)Nc1cc(-c2c[nH]c(C(=O)N[C@H](CO)c3cccc(Cl)c3)c2)c(Cl)cn1
reported_measurement: 0.33
//
molecule: CC(C)n1cnc2c(C(=O)N[C@H]3CN4CCC3CC4)cc(Cl)cc21
reported_measurement: -1.37
//
molecule: O=C(CNC(=O)c1cccc(C(F)(F)F)c1)N[C@@H]1CCN(Cc2ccc(Cl)cc2)C1
reported_measurement: -0.19
//
molecule: CN[C@H]1CC[C@@H](c2ccc(Cl)c(Cl)c2)c2ccccc21
reported_measurement: 3.54
//
molecule: Cc1ccc([N+](=O)[O-])cc1S(=O)(=O)N(C)C
reported_measurement: -4.63
